Origin of the recorded values: patent US7884242B2

assayName: log P determination by HPLC on reverse phase column, pH 2.3
Type: physicochemical
particulars: reverse phase HPLC column (C 18), reverse phase column (C 18), pH 2.3, 43° C.
measurementName: chromatographic logP

// below: answered compounds
CSC[C@H](C)NC(=O)c1c(I)cccc1C(=O)Nc1cnc(Cn2nc(C(F)(F)F)nc2C(F)(F)F)nc1C [Example 22] | 3.35
Cc1nc(Cn2nc(C(F)(F)F)cc2C(F)(F)F)ncc1NC(=O)c1cccc(Cl)c1C(=O)N[C@@H](C)CS(C)(=O)=O [Example 34] | 2.56
CSC[C@H](C)NC(=O)c1c(Cl)cccc1C(=O)Nc1cc(Cn2nc(C(F)(F)F)nc2C(F)(F)F)sc1C [Example 3] | 3.8
COC(=O)Cn1nc(C(F)(F)F)cc1C(F)(F)F | 2.93
Cc1nc(Cn2nc(C(F)(F)F)cc2C(F)(F)F)ncc1NC(=O)OC(C)(C)C [VI-1] | 3.84
CSC[C@H](C)/N=C1\OC(=O)c2cccc(I)c21 [II-1] | 3.87
CCOC(=O)c1cnc(Cn2nc(C(F)(F)F)cc2C(F)(F)F)nc1C [Example V-1] | 3.96
CSC[C@H](C)NC(=O)c1c(Cl)cccc1C(=O)Nc1cnc(Cn2nc(C(F)(F)F)nc2C(F)(F)F)nc1C [Example 20] | 3.24

Hello, I would appreciate it if you could give chromatographic logP for each entry below.
1. Cc1nc(Cn2nc(C(F)(F)F)cc2C(F)(F)F)ncc1C(=O)O
2. Cc1nc(Cn2nc(C(F)(F)F)nc2C(F)(F)F)ccc1NC(=O)c1cccc(I)c1C(=O)N[C@@H](C)C[S+](C)[O-] (some centres unmarked) [Example 13]
3. Cc1nc(Cn2nc(C(F)(F)F)nc2C(F)(F)F)ccc1NC(=O)c1cccc(Cl)c1C(=O)N[C@@H](C)CS(C)(=O)=O [Example 16]

Response:
1: 2.68; 2: 2.28; 3: 2.56

###

Would you kindly list chromatographic logP for each of these compounds?
assayName: log P determination by HPLC on reverse phase column, pH 2.3
Assay type: physicochemical
particulars: reverse phase HPLC column (C 18), reverse phase column (C 18), pH 2.3, 43° C.
Where a name gives a salt, the structure may show the parent alone.
Give bare numbers.

See these solved cases before continuing.
Cc1nc(Cn2nc(C(F)(F)F)cc2C(F)(F)F)ncc1NC(=O)c1cccc(Br)c1C(=O)N[C@@H](C)C[S+](C)[O-] (stereo partly shown) | 2.2
CSC[C@H](C)NC(=O)c1c(Cl)cccc1C(=O)Nc1cnc(Cn2nc(C(F)(F)C(F)(F)F)nc2C(F)(F)F)nc1C | 3.62
Cc1nc(Cn2nc(C(F)(F)F)cc2C(F)(F)F)ccc1NC(=O)c1cccc(I)c1C(=O)N[C@@H](C)C[S+](C)[O-] (stereo partly shown) | 2.42
N=C(N)Cn1nc(C(F)(F)F)cc1C(F)(F)F [IX-1, hydrochloride] | 0.74
CSC[C@H](C)NC(=O)c1c(Br)cccc1C(=O)Nc1cnc(Cn2nc(C(F)(F)C(F)(F)F)nc2C(F)(F)F)nc1C | 3.67

Give chromatographic logP for each of the items listed below.
1. Cc1nc(Cn2nc(C(F)(F)F)nc2C(F)(F)F)ncc1NC(=O)c1cccc(I)c1C(=O)N[C@@H](C)C[S+](C)[O-] (stereo partly shown)
2. Cc1nc(Cn2nc(C(F)(F)F)cc2C(F)(F)F)ccc1NC(=O)c1cccc(I)c1C(=O)N[C@@H](C)CS(C)(=O)=O

Response:
1. 2.13
2. 2.8

###

assayName: log P determination by HPLC on reverse phase column, pH 2.3
Assay type: physicochemical
particulars: reverse phase HPLC column (C 18), reverse phase column (C 18), pH 2.3, 43° C.
Provide the recorded chromatographic logP for the entries that follow.

Some solved entries appear below for comparison.
CSC[C@H](C)NC(=O)c1c(I)cccc1C(=O)Nc1cnc(Cn2nc(C(F)(F)F)cc2C(F)(F)F)nc1C | 3.55
CSC[C@H](C)NC(=O)c1c(Cl)cccc1C(=O)Nc1ccc(Cn2nc(C(F)(F)F)nc2C(F)(F)F)nc1C | 3.39
Cc1nc(Cn2cc(C(F)(F)C(F)(F)F)c(C(F)(F)C(F)(F)F)n2)ncc1NC(=O)c1cccc(Cl)c1C(=O)N[C@@H](C)C[S+](C)[O-] (stereo partly shown) | 2.91
Cc1nc(Cn2nc(C(F)(F)F)nc2C(F)(F)F)ncc1NC(=O)c1cccc(I)c1C(=O)N[C@@H](C)CS(C)(=O)=O | 2.54
Cc1nc(Cn2nc(C(F)(F)F)cc2C(F)(F)F)ncc1NC(=O)c1cccc(I)c1C(=O)N[C@@H](C)C[S+](C)[O-] (stereo partly shown) | 2.27

// batch mode: one chromatographic logP value per listed entry
1. Cc1nc(Cn2nc(C(F)(F)C(F)(F)F)nc2C(F)(F)F)ncc1NC(=O)c1cccc(Cl)c1C(=O)N[C@@H](C)C[S+](C)[O-] (stereo partly shown)
2. CSC[C@H](C)NC(=O)c1c(Cl)cccc1C(=O)Nc1cnc(Cn2nc(C(F)(F)F)cc2C(F)(F)F)nc1C
3. Cc1nc(Cn2cc(C(F)(F)C(F)(F)F)c(C(F)(F)C(F)(F)F)n2)ncc1NC(=O)c1cccc(Cl)c1C(=O)N[C@@H](C)CS(C)(=O)=O
4. Cc1nc(Cn2nc(C(F)(F)C(F)(F)F)nc2C(F)(F)F)ncc1NC(=O)c1cccc(Br)c1C(=O)N[C@@H](C)C[S+](C)[O-] (stereo partly shown)
5. CSC[C@H](C)NC(=O)c1c(Br)cccc1C(=O)Nc1cnc(Cn2nc(C(F)(F)F)cc2C(F)(F)F)nc1C

Response:
[2.41, 3.39, 3.29, 2.42, 3.44]

# batch: return chromatographic logP for each of the 3 molecules below
1. Cc1nc(Cn2nc(C(F)(F)F)nc2C(F)(F)F)ncc1NC(=O)c1cccc(Br)c1C(=O)N[C@@H](C)C[S+](C)[O-] (stereo partly shown)
2. Cc1nc(Cn2nc(C(F)(F)F)cc2C(F)(F)F)ccc1NC(=O)c1cccc(Cl)c1C(=O)N[C@@H](C)CS(C)(=O)=O
3. CSC[C@H](C)NC(=O)c1c(I)cccc1C(=O)Nc1ccc(Cn2nc(C(F)(F)F)cc2C(F)(F)F)nc1C

Response:
2.07
2.69
3.68

###

Task for the reader: assign each of the following compounds its reported chromatographic logP.
assayName: log P determination with LC-MS under acidic conditions, pH 2.7
Type: physicochemical
particulars: reverse phase HPLC column (C 18)

Cc1nc(Cn2nc(C(F)(F)F)cc2C(F)(F)F)ccc1[N+](=O)[O-] | 3.8
Cc1sc(Cn2nc(C(F)(F)F)nc2C(F)(F)F)cc1N | 2.2
Cc1nc(CBr)ccc1[N+](=O)[O-] | 2.2
Cc1sc(CO)cc1[N+](=O)[O-] | 1.4

Here is the next item to consider.
Query: For `Cc1nc(Cn2nc(C(F)(F)F)cc2C(F)(F)F)ccc1N` , what is its reported chromatographic logP?
Response: 1.9

###

System: caterpillars of the fall army worm (Spodoptera frugiperda)
assayName: Spodoptera frugiperda test (spray treatment)
Type: in vivo
particulars: Spodoptera frugiperda, 168 h; 4 g/ha, spray treatment, maize leaf sections, after 7 d; read-out: Death rate in % after 7d
measurementName: pest or weed control at 4 g/ha (%)
One number for each entry, in %.

Cc1nc(Cn2nc(C(F)(F)F)cc2C(F)(F)F)ncc1NC(=O)c1cccc(I)c1C(=O)N[C@@H](C)C[S+](C)[O-] (stereo partly drawn) | 83
CSC[C@H](C)NC(=O)c1c(Br)cccc1C(=O)Nc1cnc(Cn2nc(C(F)(F)F)cc2C(F)(F)F)nc1C | 100

Lab note: each compound below needs its pest or weed control at 4 g/ha filled in.
1. Cc1nc(Cn2cc(C(F)(F)C(F)(F)F)c(C(F)(F)C(F)(F)F)n2)ncc1NC(=O)c1cccc(Cl)c1C(=O)N[C@@H](C)C[S+](C)[O-] (stereo partly drawn)
2. Cc1nc(Cn2nc(C(F)(F)F)cc2C(F)(F)F)ccc1NC(=O)c1cccc(I)c1C(=O)N[C@@H](C)C[S+](C)[O-] (stereo partly drawn)
3. Cc1nc(Cn2nc(C(F)(F)F)cc2C(F)(F)F)ccc1NC(=O)c1cccc(I)c1C(=O)N[C@@H](C)CS(C)(=O)=O
4. Cc1nc(Cn2nc(C(F)(F)C(F)(F)F)nc2C(F)(F)F)ncc1NC(=O)c1cccc(Cl)c1C(=O)N[C@@H](C)C[S+](C)[O-] (stereo partly drawn)

Response:
[100, 100, 100, 100]

###

assayName: log P determination by HPLC on reverse phase column, pH 2.3
Format: physicochemical
particulars: reverse phase HPLC column (C 18), reverse phase column (C 18), pH 2.3, 43° C.
measurementName: chromatographic logP
One number for each entry.

Some molecules with known chromatographic logP results, for comparison:
Cc1nc(Cn2nc(C(F)(F)F)cc2C(F)(F)F)ncc1N | 2.43
CSC[C@H](C)NC(=O)c1c(Cl)cccc1C(=O)Nc1cnc(Cn2cc(C(F)(F)C(F)(F)F)c(C(F)(F)C(F)(F)F)n2)nc1C | 4.11
Cc1nc(Cn2nc(C(F)(F)F)nc2C(F)(F)F)ccc1NC(=O)c1cccc(Cl)c1C(=O)N[C@@H](C)C[S+](C)[O-] (stereo partly drawn) | 2.17
Cc1nc(Cn2nc(C(F)(F)F)cc2C(F)(F)F)ncc1NC(=O)c1cccc(Cl)c1C(=O)N[C@@H](C)C[S+](C)[O-] (stereo partly drawn) | 2.17

Give chromatographic logP for each of the items listed below.
1. CSC[C@H](C)NC(=O)c1c(Br)cccc1C(=O)Nc1cnc(Cn2nc(C(F)(F)F)nc2C(F)(F)F)nc1C
2. Cc1nc(Cn2nc(C(F)(F)F)nc2C(F)(F)F)ncc1NC(=O)c1cccc(Br)c1C(=O)N[C@@H](C)CS(C)(=O)=O

Response:
[3.29, 2.49]
